These measurements were taken from patent US9266964.

Biological target: T1, human plasma kallikrein (human, UniProt P03952 20-390; P03952 391-638)
T1 construct: two disulfide-linked chains; also called pKal; human pKal
T1 sequence (P03952 20-390, chain 1 of 2): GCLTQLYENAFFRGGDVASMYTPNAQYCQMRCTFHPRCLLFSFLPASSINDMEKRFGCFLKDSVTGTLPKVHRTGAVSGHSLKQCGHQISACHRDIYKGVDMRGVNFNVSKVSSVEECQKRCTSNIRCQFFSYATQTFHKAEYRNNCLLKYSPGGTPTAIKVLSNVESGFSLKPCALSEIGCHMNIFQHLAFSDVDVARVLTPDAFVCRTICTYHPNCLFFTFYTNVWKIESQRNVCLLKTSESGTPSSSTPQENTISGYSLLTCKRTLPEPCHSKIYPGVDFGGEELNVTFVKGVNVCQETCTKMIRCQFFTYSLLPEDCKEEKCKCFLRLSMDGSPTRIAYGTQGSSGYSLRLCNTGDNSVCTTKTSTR
T1 sequence (P03952 391-638, chain 2 of 2): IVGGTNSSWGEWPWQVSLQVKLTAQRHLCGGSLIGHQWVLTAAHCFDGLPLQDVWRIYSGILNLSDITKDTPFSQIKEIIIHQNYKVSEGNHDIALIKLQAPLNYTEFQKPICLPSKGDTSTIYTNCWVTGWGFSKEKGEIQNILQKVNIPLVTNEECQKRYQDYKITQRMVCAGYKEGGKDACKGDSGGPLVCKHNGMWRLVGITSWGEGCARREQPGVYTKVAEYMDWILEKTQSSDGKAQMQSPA
Assay: Ki,app, inhibition of human pKal enzyme activity
pKi: −log10 of the molar value.
pKi values by entry
Property Measured: pKi

>  <Binder>
M208-G03 (Fab, V domains shown, Tested as Fab; printed HC runs into CH1) VH: EVQLLESGGGLVQPGGSLRLSCAASGFTFSHYLMTWVRQAPGKGLEWVSYISPSGGHTIYADSVKGRFTISRDNSKNTLYLQMNSLRAEDTAVYYCARVARGIAARSRTSYLDYWGQGTLVTVSS VL: DIQMTQSPGTLSLSPGERATLSCRTSQFVNSNYLAWYQQTPGQAPRLLIYGASSRATGIPDRFSGTGYGTDFTLTISRLEPEDYGTYYCQQSSRTPWTFGQGTRVEIK

>  <Property Measured>
pKi

>  <Observed>
9.52

$$$$
>  <Binder>
M210-B02 (Fab, V domains shown, Tested as Fab; printed HC runs into CH1; amber q written Q) VH: EVQLLESGGGLVQPGGSLRLSCAASGFTFSHYLMTWVRQAPGKGLEWVSYISPSGGHTIYADSVKGRFTISRDNSKNTLYLQMNSLRAEDTAVYYCASVARGIAARSRTSYFNQWGQGTLVTVSS VL: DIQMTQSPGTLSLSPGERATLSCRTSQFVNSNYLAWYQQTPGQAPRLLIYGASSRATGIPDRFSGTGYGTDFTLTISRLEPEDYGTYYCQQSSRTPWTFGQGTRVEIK

>  <Property Measured>
pKi

>  <Observed>
9.70

$$$$
>  <Binder>
M210-H07 (Fab, V domains shown, Tested as Fab; printed HC runs into CH1; amber q written Q) VH: EVQLLESGGGLVQPGGSLRLSCAASGFTFSHYLMTWVRQAPGKGLEWVSYISPSGGHTIYADSVKGRFTISRDNSKNTLYLQMNSLRAEDTAVYYCARVARGIAARSRTRYFDQWGQGTLVTVSS VL: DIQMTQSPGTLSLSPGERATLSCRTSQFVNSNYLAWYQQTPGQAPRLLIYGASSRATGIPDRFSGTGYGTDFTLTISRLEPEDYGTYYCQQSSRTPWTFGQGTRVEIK

>  <Property Measured>
pKi

>  <Observed>
9.40

$$$$
>  <Binder>
M205-D04 (Fab, V domains shown, Tested as Fab; printed HC runs into CH1; amber q written Q) VH: EVQLLESGGGLVQPGGSLRLSCAASGFTFSTYKMQWVRQAPGKGLEWVSSISPSGGPTNYADSVKGRFTISRDNSKNTLYLQMNSLRAEDTAVYYCARVARGIAARSRTSYFDYWGQGTLVTVSS VL: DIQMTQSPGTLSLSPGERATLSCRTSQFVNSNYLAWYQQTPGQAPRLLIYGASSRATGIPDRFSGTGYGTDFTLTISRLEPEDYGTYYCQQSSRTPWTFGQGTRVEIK

>  <Property Measured>
pKi

>  <Observed>
9.40

$$$$
>  <Binder>
M209-B09 (Fab, V domains shown, Tested as Fab; printed HC runs into CH1; amber q written Q) VH: EVQLLESGGGLVQPGGSLRLSCAASGFTFSHYLMTWVRQAPGKGLEWVSYISPSGGHTIYADSVKGRFTISRDNSKNTLYLQMNSLRAEDTAVYYCARVAQGIVARSRTSYLHQWGQGTLVTVSS VL: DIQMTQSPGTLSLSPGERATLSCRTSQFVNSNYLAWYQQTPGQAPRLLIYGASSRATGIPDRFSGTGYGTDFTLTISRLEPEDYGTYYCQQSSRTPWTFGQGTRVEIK

>  <Property Measured>
pKi

>  <Observed>
9.70

$$$$
>  <Binder>
M206-B10 (Fab, V domains shown, Tested as Fab; printed HC runs into CH1; amber q written Q) VH: EVQLLESGGGLVQPGGSLRLSCAASGFTFSQYLMAWVRQAPGKGLEWVSSIYPSGGWTKYADSVKGRFTISRDNSKNTLYLQMNSLRAEDTAVYYCARVARGIAARSRTSYFDYWGQGTLVTVSS VL: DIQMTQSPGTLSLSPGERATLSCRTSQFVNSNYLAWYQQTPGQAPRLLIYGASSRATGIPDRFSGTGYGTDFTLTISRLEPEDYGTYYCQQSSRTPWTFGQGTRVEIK

>  <Property Measured>
pKi

>  <Observed>
9.52

$$$$
>  <Binder>
M208-C06 (Fab, V domains shown, Tested as Fab; printed HC runs into CH1) VH: EVQLLESGGGLVQPGGSLRLSCAASGFTFSHYLMTWVRQAPGKGLEWVSYISPSGGHTIYADSVKGRFTISRDNSKNTLYLQMNSLRAEDTAVYYCARVARGIAARSRTSFIDYWGQGTLVTVSS VL: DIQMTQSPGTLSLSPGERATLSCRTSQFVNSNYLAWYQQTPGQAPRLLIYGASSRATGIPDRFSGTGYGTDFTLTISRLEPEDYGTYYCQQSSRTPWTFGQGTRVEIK

>  <Property Measured>
pKi

>  <Observed>
9.40

$$$$
>  <Binder>
M208-F04 (Fab, V domains shown, Tested as Fab; printed HC runs into CH1) VH: EVQLLESGGGLVQPGGSLRLSCAASGFTFSHYLMTWVRQAPGKGLEWVSYISPSGGHTIYADSVKGRFTISRDNSKNTLYLQMNSLRAEDTAVYYCARVARGIAARSRTSFFDYWGQGTLVTVSS VL: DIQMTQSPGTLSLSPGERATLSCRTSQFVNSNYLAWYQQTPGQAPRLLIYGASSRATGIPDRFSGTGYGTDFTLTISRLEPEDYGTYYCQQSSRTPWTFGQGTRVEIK

>  <Property Measured>
pKi

>  <Observed>
9.70

$$$$
>  <Binder>
M208-E10 (Fab, V domains shown, Tested as Fab; printed HC runs into CH1) VH: EVQLLESGGGLVQPGGSLRLSCAASGFTFSHYLMTWVRQAPGKGLEWVSYISPSGGHTIYADSVKGRFTISRDNSKNTLYLQMNSLRAEDTAVYYCARVAQGISARSRTSYFDYWGQGTLVTVSS VL: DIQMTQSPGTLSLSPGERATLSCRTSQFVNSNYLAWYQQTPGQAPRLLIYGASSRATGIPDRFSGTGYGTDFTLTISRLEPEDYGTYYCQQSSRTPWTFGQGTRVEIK

>  <Property Measured>
pKi

>  <Observed>
10.05

$$$$
>  <Binder>
M210-C12 (Fab, V domains shown, Tested as Fab; printed HC runs into CH1; amber q written Q) VH: EVQLLESGGGLVQPGGSLRLSCAASGFTFSHYLMTWVRQAPGKGLEWVSYISPSGGHTIYADSVKGRFTISRDNSKNTLYLQMNSLRAEDTAVYYCARVAQGIAARSRTSSVDQWGQGTLVTVSS VL: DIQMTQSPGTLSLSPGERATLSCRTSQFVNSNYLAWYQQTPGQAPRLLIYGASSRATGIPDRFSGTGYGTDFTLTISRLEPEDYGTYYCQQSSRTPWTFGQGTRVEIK

>  <Property Measured>
pKi

>  <Observed>
9.80

$$$$
